Measured log10(IC50), listed per entry for reference.
target: human MGL from HeLa cells (Homo sapiens (Human)); assay: MGL in vitro activity assay ([glycerol-1,3-3H]-oleoyl glycerol hydrolysis, activated carbon filtration); conditions: 300 nM [Glycerol-1,3-3H]-oleoyl glycerol, one hour
Sequence (Q99685 whole entry): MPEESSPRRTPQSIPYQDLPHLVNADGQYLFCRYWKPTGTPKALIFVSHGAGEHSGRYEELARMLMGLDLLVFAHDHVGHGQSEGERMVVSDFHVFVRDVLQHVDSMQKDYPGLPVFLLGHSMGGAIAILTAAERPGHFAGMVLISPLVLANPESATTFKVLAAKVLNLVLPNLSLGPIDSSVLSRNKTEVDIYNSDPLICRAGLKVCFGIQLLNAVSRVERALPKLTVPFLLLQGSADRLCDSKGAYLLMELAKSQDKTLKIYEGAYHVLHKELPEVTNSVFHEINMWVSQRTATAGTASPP
All values: base-10 log of IC50 in nM.

# annotated cases, reported log10(IC50) shown
| molecule | log10(IC50) |
| --- | --- |
| C[C@]1(O)C[C@@H](C(=O)N2CC3(CC(Cc4ccc5ccccc5n4)C3)C2)C1 | 1.75 |
| CCc1cc(C2CCC3(C2)CN(C(=O)[C@H]2C[C@@](C)(O)C2)C3)ccc1Cl (mixture of isomers) | 0.78 |
| Cc1nc(CC2CC3(C2)CN(C(=O)[C@H]2C[C@@](C)(O)C2)C3)ccc1C(F)(F)F | 1.20 |
| Cc1cc(OC2CC3(CCN(C(=O)[C@H]4C[C@@](C)(O)C4)CC3)C2)ccc1C(F)(F)F | 0.76 |

Record C[C@]1(O)C[C@@H](C(=O)N2CC3(CCC(c4cc5ccccn5n4)C3)C2)C1 (mixture of isomers) : what is its log10(IC50) with human MGL from HeLa cells (Homo sapiens (Human))? 2.54

Record "Cc1ccccc1CC1CCC2(CC1)CN(C(=O)[C@H]1C[C@@](C)(O)C1)C2" : what is its log10(IC50) with human MGL from HeLa cells (Homo sapiens (Human))? 1.69

Record "CCc1ccc(OC2CCC3(CC2)CN(C(=O)[C@H]2C[C@@](C)(O)C2)C3)nc1C(F)(F)F" : what is its log10(IC50) with human MGL from HeLa cells (Homo sapiens (Human))? 0.46

Record CC(C)c1cccc(C[C@@H]2CCC3(C2)CN(C(=O)[C@H]2C[C@@](C)(O)C2)C3)c1 (racemic) : what is its log10(IC50) with human MGL from HeLa cells (Homo sapiens (Human))? 0.66

---

biological target: human MGL from HeLa cells (Homo sapiens (Human)); test: MGL in vitro activity assay ([glycerol-1,3-3H]-oleoyl glycerol hydrolysis, activated carbon filtration); conditions: 300 nM [Glycerol-1,3-3H]-oleoyl glycerol, one hour
pIC50: −log10 of the molar value.
pIC50 below 7 gives Criterion not met; pIC50 at or above it gives Criterion met.

| molecule | cat |
| --- | --- |
| Cc1ccc(CC2CC3(C2)CN(C(=O)[C@H]2C[C@@](C)(O)C2)C3)c(C(F)(F)F)c1 | Criterion met |
| C[C@]1(O)C[C@@H](C(=O)N2CC3(CCC(Oc4ccc(C(F)F)cn4)CC3)C2)C1 | Criterion not met |
| Cc1cccc(OC2CC3(C2)CN(C(=O)[C@H]2C[C@@](C)(O)C2)C3)c1C(F)(F)F | Criterion met |

Item Cn1cnc2cc(C3CCC4(C3)CN(C(=O)[C@H]3C[C@@](C)(O)C3)C4)ccc21 (mixture of isomers) with pIC50 of 7 or above? Criterion not met

Item "Cc1cc(OC2CCC3(CC2)CN(C(=O)[C@H]2C[C@@](C)(O)C2)C3)ccc1C(F)(F)F" with pIC50 of 7 or above? Criterion met

Item "C[C@]1(O)C[C@@H](C(=O)N2CC3(CC(Cc4ccc(C(F)F)cc4)C3)C2)C1" with pIC50 of 7 or above? Criterion met

Item CC(F)(F)c1ccc(C2CCC3(C2)CN(C(=O)[C@H]2C[C@@](C)(O)C2)C3)cc1 (mixture of isomers) with pIC50 of 7 or above? Criterion met

Data credit: patent US11802111B2
